- Assayed Target: UniProt:P40238
- Sequence (P40238 whole entry): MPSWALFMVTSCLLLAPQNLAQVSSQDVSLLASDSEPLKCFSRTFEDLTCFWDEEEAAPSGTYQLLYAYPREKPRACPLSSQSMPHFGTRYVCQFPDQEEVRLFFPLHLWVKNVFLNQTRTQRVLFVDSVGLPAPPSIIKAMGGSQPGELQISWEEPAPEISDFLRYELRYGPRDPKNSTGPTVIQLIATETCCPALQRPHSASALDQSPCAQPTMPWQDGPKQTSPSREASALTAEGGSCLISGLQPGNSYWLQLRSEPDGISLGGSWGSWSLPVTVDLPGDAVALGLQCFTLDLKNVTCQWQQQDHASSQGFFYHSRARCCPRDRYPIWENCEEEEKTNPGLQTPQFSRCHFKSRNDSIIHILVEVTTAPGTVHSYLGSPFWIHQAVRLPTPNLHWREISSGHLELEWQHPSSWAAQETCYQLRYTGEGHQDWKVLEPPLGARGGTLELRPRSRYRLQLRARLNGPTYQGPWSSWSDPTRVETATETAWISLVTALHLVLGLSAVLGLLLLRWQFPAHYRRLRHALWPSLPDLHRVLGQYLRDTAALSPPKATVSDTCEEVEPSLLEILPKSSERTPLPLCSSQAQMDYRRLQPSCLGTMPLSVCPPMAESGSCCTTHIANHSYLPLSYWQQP
- Run Description: Thrombopoietin luciferase activity in BAF-3 cells
- Format: cell-based
- Condition Parameters: BaF3
Observation Type: Efficacy (%)

{"columns": ["Smiles Data", "Result Units", "Efficacy"],
 "data": [
  ["O=S(=O)(O)c1cc(O)c(/N=N/c2c(O)c(O)cc3ccccc23)c2ccccc12", "%", 26],
  ["Cc1ccc(-n2[nH]cc(/N=N/c3c(O)cc(S(=O)(=O)O)c4ccccc34)c2=O)cc1C", "%", 95],
  ["Cc1[nH]n(-c2cccc(Cl)c2)c(=O)c1/N=N/c1c(O)cc(S(=O)(=O)O)c2ccccc12", "%", 34],
  ["Cc1[nH]n(-c2ccc(F)cc2)c(=O)c1/N=N/c1c(O)cc(S(=O)(=O)O)c2ccccc12", "%", 39],
  ["Cc1ccc(-n2[nH]c(C(C)(C)C)c(/N=N/c3c(O)cc(S(=O)(=O)O)c4ccccc34)c2=O)cc1C", "%", 72]
]}

P = O=C(O)c1cc2ccccc2c(/N=N/c2c(O)cc(S(=O)(=O)O)c3ccccc23)c1O
Q = Cc1ccc(O)c(/N=N/c2c(O)cc(S(=O)(=O)O)c3ccccc23)c1
Field: lower recorded Efficacy (choose P or Q ) Returns: label corresponding to the selected item. Q

1 = Cc1ccc(-n2[nH]c(C)c(/N=N/c3c(O)cc(C(=O)O)c4ccccc34)c2=O)cc1
2 = Cc1[nH]n(-c2ccc(C(C)(C)C)cc2)c(=O)c1/N=N/c1c(O)cc(S(=O)(=O)O)c2ccccc12
3 = CCNS(=O)(=O)c1cccc(-n2[nH]c(C)c(/N=N/c3c(O)cc(S(=O)(=O)O)c4ccccc34)c2=O)c1
4 = O=S(=O)(O)c1cc(O)c(/N=N/c2c(O)cc(O)c3ccccc23)c2ccccc12
Returns the items ordered by Efficacy, from maximum to minimum. Form entry: labels listed in requested order. 2, 1, 3, 4
(2: 86%, 1: 47%, 3: 25%, 4: 16%)

A = Cc1ccc(-n2[nH]c(C)c(/N=N/c3c(O)cc(S(=O)(=O)O)c4ccccc34)c2=O)cc1C
B = Cc1[nH]n(-c2ccccc2[N+](=O)[O-])c(=O)c1/N=N/c1c(O)cc(S(=O)(=O)O)c2ccccc12
C = Cc1[nH]n(-c2ccc(OCc3ccccc3)cc2)c(=O)c1/N=N/c1c(O)cc(S(=O)(=O)O)c2ccccc12
D = Cc1[nH]n(-c2ccc(Cl)c(Cl)c2)c(=O)c1/N=N/c1c(O)cc(S(=O)(=O)O)c2ccccc12
Let's sort these by Efficacy, smallest first. Go ahead? Form entry: labels listed in requested order. B, C, D, A

A = O=S(=O)(O)c1cc(O)c(/N=N/c2ccc3ccccc3c2O)c2ccccc12
B = COc1cc(O)c2ccccc2c1/N=N/c1c(O)cc(S(=O)(=O)O)c2ccccc12
C = CC(C)(C)OC(=O)c1[nH]n(-c2ccc(C(C)(C)C)cc2)c(=O)c1/N=N/c1c(O)cc(S(=O)(=O)O)c2ccccc12
Returns the items ordered by Efficacy, from maximum to minimum. Form entry: labels listed in requested order. A, C, B
(A: 87%, C: 32%, B: 19%)
